All values here come from patent US3935229A.

Assay: in vivo
Details: mouse, in vivo, po
Readout: LD50 (mg/kg)
Supply the numeric figure in mg/kg, leaving out any unit text.

Need LD50, item O=C(OCCN1CCN(c2cccc(Cl)c2)CC1)c1ccccc1Nc1ccnc2cc(Cl)ccc12 [Compound 73-018]
4000

Alright, here's another compound for you.
Please give the measured LD50 for this compound: O=C(OCCN1CCN(c2ccccc2)CC1)c1ccccc1Nc1ccnc2c(C(F)(F)F)cccc12 [SLB 181]
2000

---

Below, each entry is listed alongside its reported LD50.
Experiment: in vivo
Conditions: mouse, in vivo, po

// worked examples, LD50 included
Consider the molecule `O=C(OCCN1CCN(c2ccccc2)CC1)c1ccccc1Nc1ccnc2cc(C(F)(F)F)ccc12` and give its measured LD50.
> 3000 mg/kg

Name the recorded LD50 for `O=C(OCCN1CCN(c2cc(C(F)(F)F)cc(C(F)(F)F)c2)CC1)c1ccccc1Nc1ccnc2cc(C(F)(F)F)ccc12` .
> 4000 mg/kg

New cases:
Name the reported LD50 value associated with the molecule `O=C(OCCN1CCN(c2cccc(Cl)c2)CC1)c1ccccc1Nc1ccnc2cc(C(F)(F)F)ccc12`
> 4000 mg/kg

Query (molecule): `O=C(OCCN1CCN(c2cccc(Cl)c2)CC1)c1ccccc1Nc1ccnc2c(C(F)(F)F)cccc12` ; field requested: LD50
> 3000 mg/kg

Given the molecule `O=C(OCCN1CCN(c2cccc(SC(F)(F)F)c2)CC1)c1ccccc1Nc1ccnc2cc(C(F)(F)F)ccc12` , what is its reported LD50?
4000 mg/kg

---

System: mice of both sexes, of the Swiss strain
Assay: in vivo
Details: mice, oral administration
Readout: Acute toxicity LD50 (50% lethal dose)

Field: example entries. Status: answers known.
GET /values?readout=Acute toxicity LD50 (50% lethal dose)&item= `O=C(OCCN1CCN(c2cccc(C(F)(F)F)c2)CC1)c1ccccc1Nc1ccnc2cc(Cl)ccc12`
2,500 mg/kg

Any idea what Acute toxicity LD50 (50% lethal dose) was measured for `O=C(OCCN1CCN(c2ccccc2)CC1)c1ccccc1Nc1ccnc2cc(SC(F)(F)F)ccc12` ?
1,200 mg/kg

What value of Acute toxicity LD50 (50% lethal dose) has been recorded for this entry: O=C(OCC(O)CO)c1ccccc1Nc1ccnc2cc(Cl)ccc12 (centres unmarked) [Glafenine, reference compound]
3,500 mg/kg

Bench note: what Acute toxicity LD50 (50% lethal dose) did `O=C(OCCN1CCN(c2cccc(C(F)(F)F)c2)CC1)c1ccccc1Nc1ccnc2cc(C(F)(F)F)ccc12` show?
4,000 mg/kg

Okay, now this molecule:
Any idea what Acute toxicity LD50 (50% lethal dose) was measured for `O=C(OCCN1CCN(c2cccc(SC(F)(F)F)c2)CC1)c1ccccc1Nc1ccnc2cc(SC(F)(F)F)ccc12` ?
2,200 mg/kg

---

The compounds listed here are annotated with their ED40.
Tested on: carragenine-induced oedema of the paw, Sherman rats
Experiment: Carragenine-induced oedema test (oedema of the paw)
Format: in vivo
Settings: Rattus norvegicus; rats, oral administration; read-out: Carragenine-induced oedema test AD (AD40 = 40% active dose)
Include the unit right after the number.

Which measured ED40 value corresponds to O=C(OCCN1CCN(c2cccc(OC(F)(F)F)c2)CC1)c1ccccc1Nc1ccnc2cc(C(F)(F)F)ccc12 [Compound 73-051] ?
50 mg/kg

More entries:
// returns reported ED40 for input Cc1c(Cl)cccc1N1CCN(CCOC(=O)c2ccccc2Nc2ccnc3cc(C(F)(F)F)ccc23)CC1 [Compound 73-047]
65 mg/kg

---

Experiment: in vivo
Conditions: mouse, in vivo, po
Readout: LD50 (mg/kg)
All answers are understood in mg/kg, so give the number only.

Quick check: LD50 of `Cc1cccc(N2CCN(CCOC(=O)c3ccccc3Nc3ccnc4cc(Cl)ccc34)CC2)c1C` ?
1900

Query molecule follows.
So what's the measured LD50 for this one? `O=C(OCCN1CCN(c2cccc(SC(F)(F)F)c2)CC1)c1ccccc1Nc1ccnc2cc(Cl)ccc12`
3000

---

Test: in vivo
Details: mouse, in vivo, po, Acute toxicity LD50 (50% lethal dose), mice, oral administration
Readout: LD50 (mg/kg)
Only the number, expressed in mg/kg, is required.

Entry under review: Cc1c(N(C)C)c(=O)n(-c2ccccc2)n1C [Amidopyrine, reference compound] . Reported LD50?
850

---

Test system: carragenine-induced oedema of the paw, Sherman rats
Assay: Carragenine-induced oedema test (oedema of the paw)
Assay type: in vivo
Settings: Rattus norvegicus; rats, oral administration; read-out: Carragenine-induced oedema test AD (AD40 = 40% active dose)
hey, just use y if measured ED40 is less than 40 mg/kg, otherwise n

Please state whether ED40 is below 40 mg/kg for `O=C(OCCN1CCN(c2cc(C(F)(F)F)cc(C(F)(F)F)c2)CC1)c1ccccc1Nc1ccnc2cc(C(F)(F)F)ccc12`
n

Could you please tell me whether ED40 recorded for `O=C(OCCN1CCN(c2cccc(SC(F)(F)F)c2)CC1)c1ccccc1Nc1ccnc2c(C(F)(F)F)cccc12` is less than 40 mg/kg?
n

Next:
Confirm or reject: ED40 of `O=C(OCCN1CCN(c2cccc(Cl)c2)CC1)c1ccccc1Nc1ccnc2c(C(F)(F)F)cccc12` lies strictly below 40 mg/kg
n

Determine if `Cc1cccc(N2CCN(CCOC(=O)c3ccccc3Nc3ccnc4cc(Cl)ccc34)CC2)c1C` shows ED40 strictly lower than 40 mg/kg.
n

Problem: For the compound CCCCC1C(=O)N(c2ccccc2)N(c2ccccc2)C1=O [Phenylbutazone, reference compound] , is ED40 under 40 mg/kg?
y

In the record for `O=C(OCCN1CCN(c2cccc(SC(F)(F)F)c2)CC1)c1ccccc1Nc1ccnc2cc(Cl)ccc12` , is ED40 less than 40 mg/kg?
y

Quick check: does `O=C(OCCN1CCN(c2ccccc2)CC1)c1ccccc1Nc1ccnc2c(C(F)(F)F)cccc12` have ED40 under 40 mg/kg?
n

Quick check: does `O=C(OCCN1CCN(c2cccc(Cl)c2)CC1)c1ccccc1Nc1ccnc2cc(C(F)(F)F)ccc12` have ED40 under 40 mg/kg?
y

---

Assay: in vivo
Settings: mouse, in vivo, po
Readout: LD50

Data request, read-out LD50, for `O=C(OCCN1CCN(c2ccc(Cl)cc2)CC1)c1ccccc1Nc1ccnc2cc(Cl)ccc12`
> 2000 mg/kg

What LD50 value was documented for this molecule, `Cc1c(Cl)cccc1N1CCN(CCOC(=O)c2ccccc2Nc2ccnc3cc(C(F)(F)F)ccc23)CC1` ?
3000 mg/kg

Lab note: next molecule to report on.
Entry `O=C(OCCN1CCN(c2cccc(C(F)(F)F)c2)CC1)c1ccccc1Nc1ccnc2c(C(F)(F)F)cccc12` has what LD50?
> 3000 mg/kg

---

System: carragenine-induced oedema of the paw, Sherman rats
Assay: Carragenine-induced oedema test (oedema of the paw)
Format: in vivo
Details: Rattus norvegicus; rats, oral administration; read-out: Carragenine-induced oedema test AD (AD40 = 40% active dose)
Readout: ED40 (mg/kg)
Use mg/kg as the unit, but write only the number.

Reference set (4 entries):
Sample `O=C(OCCN1CCN(c2cccc(Cl)c2)CC1)c1ccccc1Nc1ccnc2cc(Cl)ccc12` — what was its ED40?
120

// lookup ED40 for `O=C(OCCN1CCN(c2cccc(SC(F)(F)F)c2)CC1)c1ccccc1Nc1ccnc2cc(C(F)(F)F)ccc12`
30

Give its ED40 value. Item: `O=C(OCCN1CCN(c2cccc(OC(F)(F)F)c2)CC1)c1ccccc1Nc1ccnc2cc(Cl)ccc12`
50

# input compound: `Cc1c(Cl)cccc1N1CCN(CCOC(=O)c2ccccc2Nc2ccnc3cc(Cl)ccc23)CC1` ; wanted: its ED40
30

Proceeding to the next compound to report its ED40.
Data request, read-out ED40, for `O=C(OCCN1CCN(c2cccc(C(F)(F)F)c2)CC1)c1ccccc1Nc1ccnc2cc(Cl)ccc12`
40

---

System: carragenine-induced oedema of the paw, Sherman rats
Assay: Carragenine-induced oedema test (oedema of the paw)
Type: in vivo
Settings: Rattus norvegicus; rats, oral administration; read-out: Carragenine-induced oedema test AD (AD40 = 40% active dose)
Readout: ED40 (mg/kg)
Quick reminder: number only, in mg/kg, skip the unit.

Tell me reported ED40 for `O=C(OCCN1CCN(c2ccccc2)CC1)c1ccccc1Nc1ccnc2cc(C(F)(F)F)ccc12` , tested with carragenine-induced oedema of the paw, Sherman rats.
40

Which ED40 is reported with carragenine-induced oedema of the paw, Sherman rats for this entry: Cc1c(N(C)C)c(=O)n(-c2ccccc2)n1C [Amidopyrine, reference compound] ?
80

Return ED40 measured with carragenine-induced oedema of the paw, Sherman rats given this compound: `O=C(OCCN1CCN(c2cccc(SC(F)(F)F)c2)CC1)c1ccccc1Nc1ccnc2cc(SC(F)(F)F)ccc12`
55

Others:
Write down the reported ED40 of `O=C(OCCN1CCN(c2cccc(C(F)(F)F)c2)CC1)c1ccccc1Nc1ccnc2c(C(F)(F)F)cccc12` , test system: carragenine-induced oedema of the paw, Sherman rats.
120
